# literature pull: Amine oxidase [flavin-containing] A (Bos taurus, UniProt P21398) IC50
# Sequence (P21398 whole entry): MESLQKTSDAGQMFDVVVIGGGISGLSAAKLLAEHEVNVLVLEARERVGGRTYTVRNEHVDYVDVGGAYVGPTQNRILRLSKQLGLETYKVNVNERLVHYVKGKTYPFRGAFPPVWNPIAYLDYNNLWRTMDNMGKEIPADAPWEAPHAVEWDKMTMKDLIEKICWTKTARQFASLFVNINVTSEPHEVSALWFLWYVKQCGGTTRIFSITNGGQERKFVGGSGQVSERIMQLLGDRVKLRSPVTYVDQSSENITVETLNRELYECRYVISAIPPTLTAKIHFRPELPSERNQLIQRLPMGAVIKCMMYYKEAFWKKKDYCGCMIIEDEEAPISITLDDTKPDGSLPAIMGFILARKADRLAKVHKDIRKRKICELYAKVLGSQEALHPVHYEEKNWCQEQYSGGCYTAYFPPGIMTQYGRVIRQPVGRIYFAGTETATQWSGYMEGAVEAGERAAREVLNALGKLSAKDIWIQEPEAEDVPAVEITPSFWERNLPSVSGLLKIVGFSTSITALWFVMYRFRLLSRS
Lab book: enter the figure in nM, no units written.

Please indicate IC50 recorded for N/N=C/c1ccc(Cl)cc1 3.9

Please indicate IC50 recorded for CCOC(=O)C(C(=O)N/N=C/c1ccc(Cl)cc1)[n+]1ccc2ccccc2c1 (stereo unspecified) 66

Please indicate IC50 recorded for COc1ccc(C2CC(c3ccc(O)cc3)=NN2C(C)=O)c(OC)c1 (stereo unspecified) 10

Please indicate IC50 recorded for CC(=O)N1N=C(c2ccc(O)cc2O)CC1c1ccc(C)cc1 (stereo unspecified) 9

Please indicate IC50 recorded for CCOC(=O)C1=Cc2cc(Cl)ccc2CC1=O 501

Next:
Please indicate IC50 recorded for COc1ccc(C2CC(c3ccc(O)cc3O)=NN2C(C)=O)cc1 (stereo unspecified) 9

Please indicate IC50 recorded for CC(=O)N1N=C(c2ccc(O)cc2)CC1c1cccc(Cl)c1 (stereo unspecified) 10

Please indicate IC50 recorded for CC(=O)N1N=C(c2ccc(O)cc2O)CC1c1ccc(Cl)cc1 (stereo unspecified) 10

Please indicate IC50 recorded for CC(=O)N1N=C(c2ccc(O)cc2)CC1c1ccc(C)cc1 (stereo unspecified) 100

Please indicate IC50 recorded for COc1ccc(C2CC(c3ccc(O)cc3)=NN2C(C)=O)cc1 (stereo unspecified) 9

Please indicate IC50 recorded for CC(=O)N1N=C(c2ccc(O)cc2)CC1c1ccc(Cl)cc1 (stereo unspecified) 100
